biological target: pooled human IgG
observed.property: Enzyme Activity Endpoint Assay: Fab′2 (ng/µL)
The figure you give is taken to be in ng/µL; do not add the unit.

Examples with answers:
>  <protein>
PRT-546 (protein) MANQEIRYSEETPKTITSVWTKGVTPPTDFIKNEDVLHAPYIANQGWYDITKTFNGKDDLLCGAATAGNMLHWWFDQNKEEIENYLKKHPEKQKINFNGEQMFDVKEAIDTKDSQTDSALFEYFKDKAFPYLSTKHLGVFPDHVIDMFINGYRLSLTNHGPTPVKRGTKDPRGGIFDAVFTRGDQSKLLTSRHDFKEKTLNEISDLIKQELTEGKALGLSHTYANVRINHVINLWGADFNSEGNLEAIYVTDSDSNASIGMKKYYVGVNSAGKVAISAKEIEGDNIGAQVLGLFTLSTGQDIWEQTNLEHHHHHH

>  <val>
722

$$$$
>  <protein>
PRT-601 (protein) MANQEIRYSEETPSTVTSVWTKGVTPPTDFIQNEDVLHAPYIANQGWYDITKTFNGKDDLLCGAATAGNMLHWWFDQNKEQIKNYLKKHPEKQKINFNGEQMFDVKEAIDTKNHQLDSALFEYFKDKAFPYLSTKHLGVFPDHVIDMFINGYRLSLTNHGPTPVKRGTKDPRGGIFDAVFTRGDQSKLLTSRHDFKEKNLNEISDLIKKELTEGKALGLSHTYANVRINHVINLWGADFNANGNLEAIYVTDSDSNASIGMKKYFVGVNSAGKVAISAKEIKGDNIGAQVLGLFTLSTGQDSWNQTNLEHHHHHH

>  <val>
720

$$$$
>  <protein>
PRT-34 (protein) MANQEIRYSEVTPYHVTSVWTKGVTPPANFTQGEDVFHAPYVANQGWYDITKTFNGKDDLLCGAATAGNMLHWWFDQNKDQIKRYLEEHPEKQKINFNGEQMFDVKEAIDTKNSQLDSKLFEYFKEKAFPYLSTKHLGVFPDHVIDMFINGYRLSLTNHGPTPVKEGSKDPRGGIFDAVFTRGDQSKLLTSRHDFKEKNLKEISDLIKKELTEGKALGLSHTYANVRINHVINLWGADFDSNGNLKAIYVTDSDSNASIGMKKYFVGVNSAGKVAISAKEIKEDNIGAQVLGLFTLSTGQDSWNQTN

>  <val>
37

$$$$

Next up:
Asked: Let me know recorded Enzyme Activity Endpoint Assay: Fab′2 for PRT-46 (protein) MANQEIRYSEVTPYHVTSVWTKGVTPPANFTQGEDVFHAPYVANQGWYDITKTFNGKDDLLCGAATAGNMLHWWFDQNKDQIDRYLEEHPEKAKINFNGEQMFDVKEAIDTKNDQLDSKLFEYFKEKAFPYLSTKHLGVFPDLVLDMFINGYRLSLTNHGPTPVKEGSKDPRGGFFDAVFTRGDQSKLLTSRHDFKEKNLKEISDLIKKELTEGKALGLSHTYANVRINHVINLWGADFDSNGNLKAIYVTDSDSNASIGMKRYFVGVNSAGKVAISAKEIKEDNIGAQVLGLFTLSTGQDSWNQTN , thanks.
Given back: 20
